# % Retained 65° C. per record follows
biological target: T1, TRCW5 antigen (CD3δε-Fc-Avi) (biotinylated (site not stated)); experiment: ELISA after heat
T1 construct: also called recombinant CD3
T1 sequence (chain, as listed by the source mutant limits assumed): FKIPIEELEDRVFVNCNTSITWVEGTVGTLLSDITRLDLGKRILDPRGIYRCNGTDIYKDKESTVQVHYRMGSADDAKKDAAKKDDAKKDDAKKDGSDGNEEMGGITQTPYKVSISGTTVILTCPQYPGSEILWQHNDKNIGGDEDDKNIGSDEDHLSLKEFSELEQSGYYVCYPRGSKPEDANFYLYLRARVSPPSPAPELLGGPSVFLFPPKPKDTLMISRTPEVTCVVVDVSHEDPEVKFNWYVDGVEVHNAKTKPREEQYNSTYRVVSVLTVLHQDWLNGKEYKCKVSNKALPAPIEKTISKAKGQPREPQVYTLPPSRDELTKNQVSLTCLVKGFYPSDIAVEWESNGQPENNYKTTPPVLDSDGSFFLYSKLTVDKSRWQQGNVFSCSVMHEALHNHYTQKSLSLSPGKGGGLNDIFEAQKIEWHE

For orientation, consider the following solved cases.
CD3B2030 (scFv) scFv: QVQLVQSGAEVKKPGSSVKVSCKASGYTFTRSTMHWVKQAPGQGLEWIGYINPSSAYTNYNQKFQGRVTLTADKSTSTAYMELSSLRSEDTAVYYCASPQVHYDYNGFPYWGQGTLVTVSSGGSEGKSSGSGSESKSTGGSEIVLTQSPATLSASPGERVTLSCSASSSVSYMNWYQQKPGQAPRRWIYDSSKLASGVPARFSGSGSGRDYTLTISSLEPEDFAVYYCQQWSRNPPTFGGGTKVEIK = 36%
CD3B2062 (scFv) scFv: QVQLVQSGAEVKKPGSSVKVSCKASGYTFTRSTMHWVKQAPGQGLEWIGYINPSSAYTNYAQKFQGRVTLTADKSTSTAYMELSSLRSEDTAVYYCASPQVHYDYNGFPYWGQGTLVTVSSGGSEGKSSGSGSESKSTGGSEIVLTQSPATLSASPGERVTLSCSASSSVSYMNWYQQKPGTSPRRLIYDSSKLASGVPARFSGSGSGRDYTLTISSLEPEDFAVYYCQQWSRNPPTFGGGTKVEIK = 14%

Proceeding to the next binder to report its % Retained 65° C..
**Q:** Complete the entry with % Retained 65° C. for CD3B2029 (scFv) scFv: QVQLVQSGAEVKKPGSSVKVSCKASGYTFTRSTMHWVKQAPGQGLEWIGYINPSSAYTNYNQKFQGRVTLTADKSTSTAYMELSSLRSEDTAVYYCASPQVHYDYNGFPYWGQGTLVTVSSGGSEGKSSGSGSESKSTGGSEIVLTQSPATLSASPGERVTLSCSASSSVSYMNWYQQKPGQSPRRWIYDSSKLASGVPARFSGSGSGRDYTLTISSLEPEDFAVYYCQQWSRNPPTFGGGTKVEIK
**A:** 29%
